Biological target: CYP1A2 (Homo sapiens, UniProt P05177)
Sequence (P05177 whole entry): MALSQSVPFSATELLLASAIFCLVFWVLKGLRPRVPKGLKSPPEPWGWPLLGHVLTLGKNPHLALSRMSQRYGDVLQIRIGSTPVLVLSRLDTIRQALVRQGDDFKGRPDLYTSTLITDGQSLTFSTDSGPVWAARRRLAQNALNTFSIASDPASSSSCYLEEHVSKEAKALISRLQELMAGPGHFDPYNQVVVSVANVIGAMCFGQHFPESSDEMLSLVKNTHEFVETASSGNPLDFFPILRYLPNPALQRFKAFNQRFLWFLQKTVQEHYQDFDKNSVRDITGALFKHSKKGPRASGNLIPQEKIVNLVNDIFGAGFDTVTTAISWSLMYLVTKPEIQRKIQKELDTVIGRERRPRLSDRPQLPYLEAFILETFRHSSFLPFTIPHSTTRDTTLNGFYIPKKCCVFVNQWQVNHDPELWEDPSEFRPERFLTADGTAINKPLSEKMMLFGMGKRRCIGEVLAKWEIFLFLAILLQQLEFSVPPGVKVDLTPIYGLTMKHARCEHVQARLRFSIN
measure name: IC50 (µM)

compound="O=C1CC(c2ccc(O)cc2)Oc2ccc(O)cc21 (stereo not drawn)" measurement_units=µM test_result=59
compound="O=C1CC(c2cccc(O)c2)Oc2ccc(O)cc21 (stereo not drawn)" measurement_units=µM test_result=29
compound="O=C1CC(c2ccc(O)c(O)c2)Oc2ccc(O)cc21 (stereo not drawn)" measurement_units=µM test_result=62

---

Target: CYP2D6 (Homo sapiens, UniProt P10635)
Construct: purchased Promega; host or cells: baculovirus-infected insect cells
Sequence (P10635 whole entry): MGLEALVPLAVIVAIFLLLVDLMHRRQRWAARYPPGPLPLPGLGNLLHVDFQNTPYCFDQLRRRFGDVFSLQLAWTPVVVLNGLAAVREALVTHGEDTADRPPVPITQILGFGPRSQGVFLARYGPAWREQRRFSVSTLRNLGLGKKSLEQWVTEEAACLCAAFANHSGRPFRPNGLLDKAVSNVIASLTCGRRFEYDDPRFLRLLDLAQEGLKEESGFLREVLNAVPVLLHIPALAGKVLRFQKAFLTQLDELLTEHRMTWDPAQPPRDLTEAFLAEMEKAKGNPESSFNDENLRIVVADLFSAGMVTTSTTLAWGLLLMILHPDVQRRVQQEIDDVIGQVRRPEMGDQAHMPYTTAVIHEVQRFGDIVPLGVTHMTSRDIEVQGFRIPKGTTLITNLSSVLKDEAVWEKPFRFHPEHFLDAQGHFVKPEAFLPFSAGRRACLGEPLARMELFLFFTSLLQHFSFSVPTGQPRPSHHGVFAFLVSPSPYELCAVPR
Assay: Cytochrome P450 2D6 assay (P450-Glo)
Format: in vitro ADME
Conditions: human; 10 µM
measure name: inhibition at 10 µM

compound="O=C1CC(c2cccc(O)c2)Oc2ccc(O)cc21 (stereo not drawn)" test_result="< 15%"
compound="O=C1CC(c2ccc(O)c(O)c2)Oc2ccc(O)cc21 (stereo not drawn)" test_result="< 15%"
compound="O=C1CC(c2ccc(O)cc2)Oc2ccc(O)cc21 (stereo not drawn)" test_result="< 15%"

---

Item-by-item account of pEC50
Tested on: T. brucei bloodstream forms
Assay: Activity against T. brucei bloodstream forms (resazurin-based assay)
Type: cell-based, Trypanosoma brucei
Settings: bloodstream form; dose response
pEC50: −log10 of the molar value.
measure name: pEC50

compound="O=C1CC(c2ccc(O)cc2)Oc2ccc(O)cc21 (stereo not drawn)" test_result=4.89
compound="O=C1CC(c2ccc(O)c(O)c2)Oc2ccc(O)cc21 (stereo not drawn)" test_result=4.46
compound="O=C1CC(c2cccc(O)c2)Oc2ccc(O)cc21 (stereo not drawn)" test_result=4.90

---

Target: CYP2C19 (Homo sapiens, UniProt P33261)
Construct: purchased Promega; host or cells: baculovirus-infected insect cells
Sequence (P33261 whole entry): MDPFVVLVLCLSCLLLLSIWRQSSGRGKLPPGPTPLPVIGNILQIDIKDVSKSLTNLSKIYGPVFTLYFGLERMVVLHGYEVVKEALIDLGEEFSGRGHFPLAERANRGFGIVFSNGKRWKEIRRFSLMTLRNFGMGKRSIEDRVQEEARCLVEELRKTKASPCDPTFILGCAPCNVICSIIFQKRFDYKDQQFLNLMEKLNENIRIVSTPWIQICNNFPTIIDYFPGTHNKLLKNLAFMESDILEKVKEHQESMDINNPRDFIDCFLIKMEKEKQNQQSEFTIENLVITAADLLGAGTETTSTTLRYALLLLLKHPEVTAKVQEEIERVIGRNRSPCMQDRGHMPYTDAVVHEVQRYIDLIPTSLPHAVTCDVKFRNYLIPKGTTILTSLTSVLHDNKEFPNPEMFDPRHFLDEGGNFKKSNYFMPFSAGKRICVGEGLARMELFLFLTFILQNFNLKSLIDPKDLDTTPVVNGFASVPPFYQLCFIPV
Test: Cytochrome P450 2C19 assay (P450-Glo)
Type: in vitro ADME
pIC50: −log10 of the molar value.
measure name: pIC50

molecule="O=C1CC(c2ccc(O)cc2)Oc2ccc(O)cc21 (stereo not drawn) [Compound 2]" test_result=5.40
molecule="O=C1CC(c2cccc(O)c2)Oc2ccc(O)cc21 (stereo not drawn) [Compound 1]" test_result=6.00
molecule="O=C1CC(c2ccc(O)c(O)c2)Oc2ccc(O)cc21 (stereo not drawn) [Compound 3]" test_result=5.30

---

Target: Leishmania major pteridine reductase 1 (LmPTR1) (Leishmania major)
Construct: made in house
Sequence (Q01782 whole entry): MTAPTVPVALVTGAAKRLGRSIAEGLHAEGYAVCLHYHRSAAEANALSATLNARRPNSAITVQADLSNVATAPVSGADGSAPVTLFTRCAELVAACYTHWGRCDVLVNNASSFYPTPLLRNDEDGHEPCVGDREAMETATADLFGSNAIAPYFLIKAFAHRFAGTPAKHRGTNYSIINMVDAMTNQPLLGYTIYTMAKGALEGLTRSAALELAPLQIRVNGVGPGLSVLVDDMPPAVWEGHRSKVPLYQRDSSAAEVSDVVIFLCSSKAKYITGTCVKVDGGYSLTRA
Experiment: LmPTR1 enzyme reporter assay (cytochrome-c reduction, 550 nm)
Format: biochemical
Conditions: read-out: % Inhibition LmPTR1 (50 μM)
measure name: inhibition at 50 µM (%)

compound="O=C1CC(c2ccc(O)cc2)Oc2ccc(O)cc21 (stereo not shown)" measure_name="inhibition at 50 µM" test_result=56
compound="CCc1nc(N)nc(N)c1-c1ccc(Cl)cc1 [pyrimethamine, reference compound]" measure_name="inhibition at 50 µM" test_result=100
compound="O=C1CC(c2cccc(O)c2)Oc2ccc(O)cc21 (stereo not shown)" measure_name="inhibition at 50 µM" test_result=50.4
compound="O=C1CC(c2ccc(O)c(O)c2)Oc2ccc(O)cc21 (stereo not shown)" measure_name="inhibition at 50 µM" test_result=69

---

Target: CYP2C9 (Homo sapiens, UniProt P11712)
Construct: purchased Promega; host or cells: baculovirus-infected insect cells
Sequence (P11712 whole entry): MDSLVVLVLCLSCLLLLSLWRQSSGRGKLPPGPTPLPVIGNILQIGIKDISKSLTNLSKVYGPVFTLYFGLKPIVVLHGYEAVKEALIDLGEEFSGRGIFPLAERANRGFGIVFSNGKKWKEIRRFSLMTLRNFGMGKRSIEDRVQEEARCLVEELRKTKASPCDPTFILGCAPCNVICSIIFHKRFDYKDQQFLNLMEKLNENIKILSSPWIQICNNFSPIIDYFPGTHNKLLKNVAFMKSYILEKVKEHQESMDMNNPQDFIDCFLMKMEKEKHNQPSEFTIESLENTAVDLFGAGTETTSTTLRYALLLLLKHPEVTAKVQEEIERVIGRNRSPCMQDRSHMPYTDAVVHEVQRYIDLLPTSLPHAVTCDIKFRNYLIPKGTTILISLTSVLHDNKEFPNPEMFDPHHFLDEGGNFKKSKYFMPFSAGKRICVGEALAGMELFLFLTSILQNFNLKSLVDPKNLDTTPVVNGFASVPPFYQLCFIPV
Assay: Cytochrome P450 2C9 assay (P450-Glo)
Assay type: in vitro ADME
Conditions: human; 10 µM
measure name: inhibition at 10 µM

molecule="O=C1CC(c2ccc(O)cc2)Oc2ccc(O)cc21 (stereo not drawn)" test_result="< 15%"
molecule="O=C1CC(c2cccc(O)c2)Oc2ccc(O)cc21 (stereo not drawn)" test_result="< 15%"
molecule="O=C1CC(c2ccc(O)c(O)c2)Oc2ccc(O)cc21 (stereo not drawn)" test_result="< 15%"
